- Tested on: SK-MEL-28 melanoma
- Experimental Protocol: NCI tumour cell line growth inhibition, 48 h
Outcome Measure: TGI

Consider the following illustrative entries.
O=Cc1c(O)c(C(=O)Nc2ccc3[nH]c(=O)[nH]c3c2)cc2ccccc12 = > 100 µM
COC(=O)c1c2cccccc-2c(Cc2c3cccccc-3c(C(=O)OC)c2O)c1O = > 100 µM
CCN1CCN(CC(=O)N2c3cccc4cccc(c34)N(C(=O)CN3CCN(CC)CC3)C2c2cn(-c3ccccc3)nc2-c2cccc([N+](=O)[O-])c2)CC1 = 3.2 µM
CCC(C#N)NCc1cccc(CNC(C#N)CC)c1 (configuration not stated) = > 100 µM
O=C(c1ccccc1)c1cn(/N=C\c2ccccc2)c(=O)nc1-c1ccccc1 = > 100 µM
Oc1ccc2oc3ncc(Br)c(-c4ccccc4)c3c2c1 = > 100 µM

Task: What TGI appears in the records for this compound with SK-MEL-28 melanoma? CN(C)c1ccc(/C=c2\sc3nc4ccccc4n3c2=O)cc1
Output: > 100 µM

Task: What TGI appears in the records for this compound with SK-MEL-28 melanoma? CCCC(=O)OC1C(CO)OC(n2cc(F)c(=O)[nH]c2=O)C1F (configuration not stated)
Output: > 100 µM

Task: What TGI appears in the records for this compound with SK-MEL-28 melanoma? CC(=O)C1=C(O)CC2CC3c4[nH]c5ccccc5c4CCN3CC2C1 (configuration not stated)
Output: > 100 µM

Task: What TGI appears in the records for this compound with SK-MEL-28 melanoma? CCN1CCC(O)(c2ccc(Cl)cc2)C(C(=O)c2ccc(Cl)cc2)C1 (configuration not stated)
Output: > 100 µM

Task: What TGI appears in the records for this compound with SK-MEL-28 melanoma? Cc1ccc(O)c(NC(=O)c2ccc(CNc3ccnc(C(F)(F)F)c3)cc2)c1
Output: 39.9 µM

Task: What TGI appears in the records for this compound with SK-MEL-28 melanoma? CC(C(O)c1ccccc1)C(O)(C(F)(F)F)C(F)(F)F (configuration not stated)
Output: > 100 µM

Task: What TGI appears in the records for this compound with SK-MEL-28 melanoma? O=C(O)CN1C(=O)C(Cc2ccc(O)cc2)N=C(c2cccc(O)c2)c2ccccc21 (configuration not stated)
Output: > 100 µM

Task: What TGI appears in the records for this compound with SK-MEL-28 melanoma? C=CC(Cl)(CBr)CCC(Br)C(C)(C)Cl (configuration not stated)
Output: 33.1 µM

Task: What TGI appears in the records for this compound with SK-MEL-28 melanoma? CN(C)c1ccc(/C=C/c2cc[n+](C)c(/C=C/c3ccc(N(C)C)cc3)c2)cc1
Output: 2.7 µM

Task: What TGI appears in the records for this compound with SK-MEL-28 melanoma? CCNC(=O)O[C@H]1CN[C@H](C#Cc2cc3ncnc(Nc4ccc(OCc5cccc(F)c5)c(Cl)c4)c3s2)C1
Output: > 25 µM

Task: What TGI appears in the records for this compound with SK-MEL-28 melanoma? COc1cc(/C=C/C(=O)C2(C(=O)/C=C/c3cc(OC)c(OC)c(OC)c3)CCCCC2)cc(OC)c1OC
Output: > 100 µM

###

- System: A498 renal
- Experimental Protocol: NCI tumour cell line growth inhibition, 48 h
Decision: TGI compared against 40 µM; not below it gives YES, below it gives NO.

Task: Assess whether reported TGI for COc1ccc(C(=O)/C=C/c2cc(O)c(O)c(F)c2F)c(OC)c1 sits at 40 µM or higher.
Output: YES

###

- Test system: SW-620 colon
- Experimental Protocol: NCI tumour cell line growth inhibition, 48 h
TGI for assorted compounds

Cc1cc(=O)oc2c(CNC(Cc3ccccc3)C(=O)O)c(O)ccc12 (configuration not stated) = > 100 µM
O=C(OC[C@H]1O[C@H](OC(=O)c2cc(O)c(O)c(OC(=O)c3cc(O)c(O)c(O)c3)c2)[C@H](OC(=O)c2cc(O)c(O)c(OC(=O)c3cc(O)c(O)c(O)c3)c2)[C@@H](OC(=O)c2cc(O)c(O)c(OC(=O)c3cc(O)c(O)c(O)c3)c2)[C@@H]1OC(=O)c1cc(O)c(O)c(OC(=O)c2cc(O)c(O)c(O)c2)c1)c1cc(O)c(O)c(OC(=O)c2cc(O)c(O)c(O)c2)c1 = > 25 µM
COC(=O)c1ccccc1C1CN=NC12Cc1cc(C)ccc1C2=O (configuration not stated) = > 100 µM

Task: What TGI appears in the records for this compound with SW-620 colon? O=C(/C=C/c1ccc(C(F)(F)F)cc1)c1ccc(Nc2nc(NCCO)nc(Nc3ccc(Cl)cc3)n2)cc1
Output: 5.04 µM

Task: What TGI appears in the records for this compound with SW-620 colon? Cc1nc2c(=O)n(C)ncc2[nH]1
Output: > 100 µM

Task: What TGI appears in the records for this compound with SW-620 colon? COc1ccc(C(=O)/C=C/c2cc(O)c(O)c(F)c2F)c(OC)c1
Output: > 100 µM

###

- Test system: NCI-H226 lung
- Experimental Protocol: NCI tumour cell line growth inhibition, 48 h; in the data active means GI50 below about 0.43 µM; inactive means the rest
Mark one answer only. Choices: active, inactive

Reference set (3 entries):
N#C/C(=C\c1ccc(Br)cc1)n1nnc2ccc(F)cc21 = inactive
C[N+]1=C(/C=C\C=C\c2ccccc2)C(C)(C)c2ccccc21 = inactive
COc1cc2c(cc1OCCCC(=O)Nc1ccc3ccc4cccc5ccc1c3c45)N=C[C@@H]1CCCN1C2=O = active

Task: Outcome? COC(C)(C)C/C=C/C(C)=C/C=C/C(C)=C\C=C\C(C)=C\C=C\C=C(C)\C=C\C=C(C)\C=C\C=C(C)\C=C\CC(C)(C)OC
Output: inactive

Task: Outcome? CCOC(=O)c1c2c(n3ccccc13)C(=O)c1ncccc1C2=O
Output: active

Task: Outcome? CCN(CC)c1ccc(C(=O)c2ccc(N(CC)CC)cc2)cc1
Output: inactive

Task: Outcome? COc1ccc(-c2ccc(-c3ccc(C(=N)N)o3)o2)cc1
Output: inactive

Task: Outcome? Cc1cnc(C(=O)NNc2nc3sc4c(c3c(=O)n2C)C(C)CCC4)cn1 (centres undefined)
Output: active

Task: Outcome? CCNC(=O)O[C@H]1CN[C@H](C#Cc2cc3ncnc(Nc4ccc(OCc5cccc(F)c5)c(Cl)c4)c3s2)C1
Output: inactive

Task: Outcome? CN(C)CCCNC(=O)c1cc(NC(=O)c2cc(NC(=O)CCNS(=O)(=O)c3ccc4c(c3)C(=O)c3ccccc3C4=O)cn2C)cn1C
Output: inactive

###

- Test system: MOLT-4 leukemia
- Experimental Protocol: NCI tumour cell line growth inhibition, 48 h
TGI for assorted compounds

Task: Would you kindly share the measured TGI for CCN1CCN(CC(=O)N2c3cccc4cccc(c34)N(C(=O)CN3CCN(CC)CC3)C2c2cn(-c3ccccc3)nc2-c2cccc([N+](=O)[O-])c2)CC1 ?
Output: 5.06 µM

Task: Would you kindly share the measured TGI for N#Cc1c(N)nc(Sc2ccccc2N)c(C#N)c1-c1ccc(Cl)cc1 ?
Output: > 24.6 µM

###

- Tested on: HOP-92 NSCLC
- Experimental Protocol: NCI tumour cell line growth inhibition, 48 h; in the data active means GI50 below about 0.43 µM; inactive means the rest
Mark one answer only. Choices: active, inactive

Reference set (2 entries):
Cc1ncc(C(=O)Nc2ccc(CN3CCN(C)CC3)c(C(F)(F)F)c2)cc1C#Cc1cnc(N)cc1C#N = active
Cc1ccc(Cl)cc1NC(=O)c1sc2nc3c(cc2c1N)C(=O)CCC3 = inactive

Task: Outcome? O=C1C(=O)c2cccnc2-c2ncccc21
Output: active

Task: Outcome? Cc1cnc(C(=O)NNc2nc3sc4c(c3c(=O)n2C)C(C)CCC4)cn1 (stereo unspecified)
Output: inactive

Task: Outcome? COc1cc(-c2nc(SCCC(C)C)nc(Nc3ccc(S(N)(=O)=O)cc3)c2C#N)cc(OC)c1OC
Output: inactive

Task: Outcome? CCCCCCCc1cc2c3c(nc4ccccc42)C(=O)c2cccnc2-c3n1
Output: inactive

###

TGI for assorted compounds
- Tested on: UACC-62 melanoma
- Experimental Protocol: NCI tumour cell line growth inhibition, 48 h
Numbers only; they are read as µM.

OCC#Cc1ccccc1C#CCCCCCC#Cc1ccccc1C#CCO = 32.3

Shift focus to the following entry.
Task: Would you kindly share the measured TGI for O=C1C[C@@H]2/C(=C(O)\C=C\c3ccccc3)C(=O)C=C[C@@H]2O1 ?
Output: 12.2

###

- Test system: MDA-N
- Experimental Protocol: NCI tumour cell line growth inhibition, 48 h
TGI for assorted compounds

COI1NC(=O)c2ccccc21 = > 100 µM

Task: Would you kindly share the measured TGI for Cc1ccc(NC(=O)c2cc(S(=O)(=O)Nc3nc4ncccc4[nH]3)c(SSc3cc(Cl)c(C(=O)Nc4ccc(C)cc4)cc3S(=O)(=O)Nc3nc4ncccc4[nH]3)cc2Cl)cc1 ?
Output: > 100 µM

Task: Would you kindly share the measured TGI for COc1cccc(/C=N/C(/N=C/c2cccc(OC)c2O)c2cccc(OC)c2O)c1O ?
Output: > 100 µM

Task: Would you kindly share the measured TGI for CCCCn1c2c(n(CCCC)c1=S)-c1c(n(CCCC)c(=S)n1CCCC)SSc1c(n(CCCC)c(=S)n1CCCC)-c1c(n(CCCC)c(=S)n1CCCC)SSc1c(n(CCCC)c(=S)n1CCCC)-c1c(n(CCCC)c(=S)n1CCCC)SS2 ?
Output: > 46 µM
